viability at 30 µM overview
System: PC12 cells
Assay: Etoposide-induced apoptosis in PC12 cells, cell viability
Format: cell-based
Settings: Rattus norvegicus, PC-12; 30 μM compound; etoposide-induced apoptosis, PC12 cells; read-out: % Viability 30 μM
Record the value in %, omitting the unit from your answer.

Worked cases, viability at 30 µM given:
COC(=O)Nc1ccc(NCc2cccc(C(F)(F)F)c2)nc1N; 37
CCOC(=O)Nc1ccc(NC(C)c2ccccc2)nc1N (stereo not shown); 24
CCOC(=O)Nc1ccc(NCc2ccccc2C(F)(F)F)nc1N; 77.7

Which viability at 30 µM value is on record for `CCOC(=O)Nc1ccc(NCc2ccc(C)cc2C)nc1N` ?
65.7

Consider the molecule shown here: `CCOC(=O)Nc1ccc(NCc2ccc(SC(F)(F)F)cc2)nc1N` What is its recorded viability at 30 µM?
110

What viability at 30 µM value was documented for this molecule, `CCOC(=O)Nc1ccc(NCc2ccccc2)nc1N` ?
88.8

I have this molecule here, `CCOC(=O)Nc1ccc(NCc2cc(C(F)(F)F)cc(C(F)(F)F)c2)nc1N` , and I need its recorded viability at 30 µM.
56

Requested field: viability at 30 µM. Item: `C=CCOC(=O)Nc1ccc(NCc2ccc(Cl)cc2)nc1N`
80.4

Looking for the measured viability at 30 µM of `Nc1nc(NCc2ccc(F)cc2)ccc1NC(=O)Oc1ccccc1` , can you help?
70.3

# lookup: viability at 30 µM of `CCOC(=O)Nc1ccc(NCc2ccc(C(F)(F)F)cc2)nc1`
52.9

// query viability at 30 µM value for entry `CCOC(=O)Nc1ccc(NCc2cccc(C(F)(F)F)c2)nc1N`
46.4

Entry `CCOC(=O)Nc1ccc(NCc2cc(F)cc(C(F)(F)F)c2)nc1N` has what viability at 30 µM?
78.2

Given the entry `Nc1nc(NCc2ccc(F)cc2)ccc1NC(=O)OCC1c2ccccc2-c2ccccc21` , report its measured viability at 30 µM.
49.7

Request the reported viability at 30 µM associated with `COC(=O)Nc1ccc(NCc2ccc(F)cc2)nc1N`
63.3

Would you mind telling me what viability at 30 µM value was observed for `CCOC(=O)Nc1ccc(NCc2cccc(OC)c2)nc1N` ?
63.8

* * *

Listed next: entries and their corresponding viability at 30 µM.
Tested on: PC12 cells
Assay: Serum starvation-induced apoptosis in PC12 cells, cell viability
Format: cell-based
Conditions: Rattus norvegicus, PC-12; 30 μM compound; serum starvation-induced apoptosis, PC12 cells; read-out: % Viability 30 μM
# value in %; strip the unit string

CCOC(=O)Nc1ccc(NCc2cc(C(F)(F)F)cc(C(F)(F)F)c2)nc1N [NK-17-3]; 57.9
CC(C)COC(=O)Nc1ccc(NCc2ccc(F)cc2)nc1N [NK-8-1]; 88.3
CC(Cl)OC(=O)Nc1ccc(NCc2ccc(F)cc2)nc1N (stereo not shown) [NK-21-1]; 84
CCOC(=O)Nc1ccc(NCc2ccc(Cl)cc2)nc1N [NK-4-3]; 86.6
COC(=O)Nc1ccc(NCc2cccc(C(F)(F)F)c2)nc1N [NK-16-4]; 97.6
Nc1nc(NCc2ccc(F)cc2)ccc1NC(=O)OCc1ccccc1 [NK-10-1]; 96.1

Look up viability at 30 µM for this compound: CCOC(=O)Nc1ccc(NCc2ccc(F)cc2)nc1N [NK-1-4, reference compound]
89.9

Item under review: CCCOC(=O)Nc1ccc(NCc2ccc(F)cc2)cc1N [NK-30-2] . Reported viability at 30 µM?
76.2

Any idea what its viability at 30 µM is? The compound is CCOC(=O)Nc1ccc(NCc2cccc(C(F)(F)F)c2)nc1N [NK-16-3]
84.2

What viability at 30 µM value was documented for this compound, C=CCOC(=O)Nc1ccc(NCc2cccc(C(F)(F)F)c2)nc1N [NK-16-6] ?
74.5
